Listed next: entries and their corresponding MFI.
Biological target: T1, HER2 on the surface of N87 gastric cancer cells (human, UniProt P04626 23-1255)
T1 construct: whole, on cells; also called cell surface HER2
Experiment: flow cytometry on N87 cells, 0.5 nM scFv detected with AL1-RFP

Quick one: MFI for 30CHS-13 source scFv (scFv) DIQMTQSPSSLSASVGDRVTITCKSNQNLLDSGNQRTYLNWYQQKPGKAPKLLIYHTSRLYSGVPSRFSGSGSGTDFTLTISSLQPEDFATYYCSQTFRHPGTFGQGTKVEIKREVQLVESGGGLVQPGGSLRLSCKASGYTFGHYSMFWVRQAPGKGLEWVASIYPHYGHTYYADSVKGRFTISADTSKNTAYLQMNSLRAEDTAVYYCARGHWLDYWGQGTLVTVSSASAAA ? 93
